# Target of assay: T1, Bzz1-2, P38822
# T1 sequence (P38822 568-633, looked up): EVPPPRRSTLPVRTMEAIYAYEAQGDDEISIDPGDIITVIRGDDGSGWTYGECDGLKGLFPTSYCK
# Experimental protocol: SPOT array
# Condition description: median of control spots 4538
Test readout: SPOT intensity

Below are worked cases with known answers.
[[record]]
binder = "IAPIPMPKPNPTHIS"
test_readout = "SPOT intensity"
val = 0

[[record]]
binder = "FYNRTAFQLPGDARV"
test_readout = "SPOT intensity"
val = 0

[[record]]
binder = "MPAPPPPPPPPPGAF"
test_readout = "SPOT intensity"
val = 1

[[record]]
binder = "VPPVPLPFGIPPFPM"
test_readout = "SPOT intensity"
val = 0

[[record]]
binder = "HVRRSILALPLGVLL"
test_readout = "SPOT intensity"
val = 0


a: PSPSSSPPPIPKTAN
b: ISPPASPPPEFDFSK
Min SPOT intensity? a | b Kindly give the label for the entry you pick.
b
